Taken from PubChem BioAssay (NCI).

- System: HT29 colon
- Protocol: NCI tumour cell line growth inhibition, 48 h; in the data active = GI50 below about 0.43 µM; inactive = the rest
Outcomes: True (active), False (inactive)

INSERT INTO assay_data (compound, assigned_class) VALUES
  ('CC(C)=CC(=O)OC1C(CO)OC(Oc2cc(O)c3c(=O)cc(-c4ccc(O)c(O)c4)oc3c2)C(OC2OC(C)C(O)C(O)C2O)C1O (stereo not drawn)', 'False'),
  ('Cc1nn(CCO)c(C)c1N=[N+]([O-])c1c(C)nn(CCO)c1C', 'False'),
  ('Oc1cccc(-c2nc(-c3n[nH]c(=S)n3-c3ccccc3)cc3c2[nH]c2ccccc23)c1', 'False'),
  ('[Cl-].[Nd+3].[O-]/N=C(\c1ccccc1)c1ccccn1.[O-]/N=C(\c1ccccc1)c1ccccn1.[O-]/N=C(\c1ccccc1)c1ccccn1', 'False'),
  ('COc1ccc2nc3cccc([N+](=O)[O-])c3c(NCCNCCO)c2c1', 'True'),
  ('CCOC(=O)/C=C1/SC(N2CCCCC2)C(=O)N1CC (stereo not drawn)', 'False'),
  ('COc1ccc2c(c1)[n+]([O-])c(C#N)c(NC(=O)c1cccs1)[n+]2[O-]', 'False'),
  ('C=C1C(=O)O[C@H]2[C@H]1CC/C(COC(=O)CCCC(=O)OC/C1=C/CC[C@@]3(C)O[C@H]3[C@H]3OC(=O)C(=C)[C@@H]3CC1)=C\CC[C@@]1(C)O[C@@H]21', 'False');

###

- Tested on: OVCAR-5 ovarian
- Protocol: NCI tumour cell line growth inhibition, 48 h
Measurement type: TGI

INSERT INTO measurements (molecule, result) VALUES
  ('COC(=O)c1cc(C)ccc1/C=C1\Cc2cccc(C)c2C1=O', '> 100 µM'),
  ('O=C(O)CSc1ccc(N=C=S)cc1', '> 100 µM'),
  ('CC(=O)N1CCC(Nc2cc(C(=O)NC[C@H](O)CN3CCc4ccccc4C3)ncn2)CC1', '> 100 µM'),
  ('COc1ccc(OC)c2[nH]c(Sc3c([N+](=O)[O-])ncn3C)nc12', '> 100 µM'),
  ('Cn1ncc2c(Nc3ccc(Cl)cc3)c3ccccc3nc21', '47.5 µM'),
  ('CC1=NN(C(=O)c2ccc(Cl)cc2)C(=O)C1N=Nc1ccc(S(=O)(=O)Nc2ncccn2)cc1 (stereo unspecified)', '> 100 µM'),
  ('CCCCCCCC(=O)SCC/C=C/[C@@H]1CC(=O)NCc2cccc(n2)CN(Cc2ccc3ccccc3c2)CC(=O)N[C@@H](C(C)C)C(=O)O1', '> 100 µM'),
  ('O=C(N/N=C/c1c(Cl)cccc1Cl)c1cccnc1Nc1cccc(C(F)(F)F)c1', '47 µM'),
  ('C=C1CCc2ccccc2C1=O', '> 100 µM'),
  ('C=CC(=O)N1C[C@H](COc2nc(Nc3cnn(C)c3)nc3[nH]cc(Cl)c23)[C@@H](OC)C1', '48.4 µM'),
  ('CC1=NN(C(=O)CC(=O)Nc2ccccc2)C(=O)C1N=Nc1ccc(C(=O)O)cc1 (stereo unspecified)', '> 100 µM'),
  ('CCCCOC(=O)C(=O)C(CC(CC)C(=O)c1ccccc1)C(=O)C=C(C)C (stereo unspecified)', '> 100 µM'),
  ('[Cl-].[Nd+3].[O-]/N=C(\c1ccccc1)c1ccccn1.[O-]/N=C(\c1ccccc1)c1ccccn1.[O-]/N=C(\c1ccccc1)c1ccccn1', '> 100 µM'),
  ('NC1=NS(=O)(=O)Nc2nc(-c3ccc(Cl)cc3)[nH]c21', '> 100 µM'),
  ('COc1ccc(/C=c2/sc3n(c2=O)NC2(CCCCC2)NN=3)cc1', '> 100 µM'),
  ('COc1cc(-c2csc(NC(=O)Nc3ccc(Cl)c(C(F)(F)F)c3)n2)cc(OC)c1OC', '10.5 µM');
